Tested on: A498 renal
Assay: NCI tumour cell line growth inhibition, 48 h; in the data active = GI50 below about 0.43 µM; inactive = the rest
Would you mind answering with one of these outcomes? active, inactive

Lab log entry: CCCCCCNC(=O)Oc1ccc(/C(=C(\C)c2ccccc2)c2ccc(OCCN3CCCCC3)cc2)cc1 — outcome as called in the assay? inactive

Lab log entry: Oc1ccc(Br)cc1/C=N/NC(=S)NC12CC3CC(CC(C3)C1)C2 — outcome as called in the assay? inactive

Lab log entry: CN1CCN(Cc2ccc(NC(=O)c3[nH]ncc3Nc3ncnc4sccc34)cc2)CC1 — outcome as called in the assay? active

Lab log entry: O=C1/C(=C/c2ccc([N+](=O)[O-])s2)Oc2ccccc21 — outcome as called in the assay? inactive

Lab log entry: O=C(CC1(O)C(=O)Nc2ccc(Br)cc21)c1ccc(C(=O)NCC2CCC3(CC2)OOC2(CCCCC2)OO3)cc1 (configuration not stated) — outcome as called in the assay? inactive

Lab log entry: CC1CCC2C(C)C3C(CC4C5CC=C6CC(OC7OC(CO)C(O)C(OC8OC(CO)C(O)C(O)C8O)C7OC7OC(C)C(O)C(O)C7O)CCC6(C)C5CCC43C)N2C1 (configuration not stated) — outcome as called in the assay? inactive

Lab log entry: CC[C@H](Nc1nc(N)nc(N)c1Cl)c1nc2cccc(NCc3ccc(C(=O)NO)cc3)c2c(=O)n1-c1ccccc1 — outcome as called in the assay? inactive

Lab log entry: N=C(N)c1ccc(-c2ccc(-c3ccc(Cl)cn3)s2)cc1 — outcome as called in the assay? inactive

Lab log entry: COc1cccc(Cn2cc3c(c2)-c2oncc2CC3)c1 — outcome as called in the assay? active

Lab log entry: C=CC[Se]C(=O)Cc1c(C)n(C(=O)c2ccc(Cl)cc2)c2ccc(OC)cc12 — outcome as called in the assay? inactive

Lab log entry: COc1ccc2c(c1OC)-c1c(c3ccc([N+](=O)[O-])cc3c(=O)n1CCCN=[N+]=[N-])C2=O — outcome as called in the assay? inactive

Lab log entry: BrC(Br)(Br)c1cnc2ccccc2n1 — outcome as called in the assay? inactive

---

Tested on: ACHN renal
Assay: NCI tumour cell line growth inhibition, 48 h
Would you kindly list GI50 for each of these compounds?

Determine from records and report GI50 for CCn1c(-c2nonc2N)nc2c(C#CC(C)(C)O)nc(O[C@@H](CN)c3ccccc3)cc21 689 nM

Determine from records and report GI50 for BrC(Br)(Br)c1cnc2ccccc2n1 1410 nM

Determine from records and report GI50 for NC(N)=N/N=C/c1cccc(Cl)c1Cl 12400 nM

Determine from records and report GI50 for COc1cc(C2CC(c3ccc4c(c3)OCO4)=NN2C(C)=O)cc(OC)c1OC (stereo not drawn) 3660 nM

Determine from records and report GI50 for Cc1[nH]nc2c1N=C(c1ccccc1F)c1cc(C#N)ccc1N2 326 nM

Determine from records and report GI50 for CCCCCC(=O)OCC(=O)O[C@@H]1C[C@]2(C(C)C)O[C@@]1(C)[C@@H]1CC[C@@H](C)[C@H]1[C@@H]2OC(=O)/C=C/c1ccccc1 38.7 nM

Determine from records and report GI50 for Cc1ccc2[nH]c(C(=O)NN3C(=O)CSC34CCCC(C)C4)c(-c3ccccc3)c2c1 (stereo not drawn) 18300 nM

Determine from records and report GI50 for COc1cccc2c1cc([N+](=O)[O-])c1c(C(=O)O)cc3c(c12)OCO3 35200 nM

---

System: UO-31 renal
Assay: NCI tumour cell line growth inhibition, 48 h
Would you kindly list TGI for each of these molecules?

Determine from records and report TGI for O=C1SC(c2ccc(Cl)cc2)(c2ccc(Cl)cc2)c2ccccc21 > 100 µM

Determine from records and report TGI for O=C(O)c1ccc(-c2ccc(C(=O)O)cc2I)c(I)c1 > 100 µM

Determine from records and report TGI for O=C1OC(c2ccccc2)=N/C1=C\c1c(O)cc(O)cc1O > 100 µM

Determine from records and report TGI for O=C(CCc1ccccc1)On1nnc2ccccc2c1=O > 100 µM

Determine from records and report TGI for O=c1n(-c2ccccc2)c(=O)n2n1C1CCC2CC1 > 100 µM

Determine from records and report TGI for CC1=Nc2c([nH]c(=S)[nH]c2=O)NC(c2ccc(Cl)c(Cl)c2)C1 (stereo unspecified) 89.6 µM

Determine from records and report TGI for O=C(O)C(Br)C(Br)c1ccccc1[N+](=O)[O-] (stereo unspecified) 94.9 µM

Determine from records and report TGI for COc1ccc(OC)c(-c2cc(-c3ccccc3)nn2-c2ccc(S(N)(=O)=O)cc2)c1 50.4 µM

Determine from records and report TGI for Cc1ncc(CO)c(CN)c1O > 100 µM

Determine from records and report TGI for CC(=O)n1nc(-c2nc3ccccc3nc2Cl)cc1Cl 4.79 µM

Determine from records and report TGI for Cc1cc(=O)[nH]c(NN2C(Cl)C(=O)C2c2cccc([N+](=O)[O-])c2)n1 (stereo unspecified) > 100 µM

Determine from records and report TGI for Cn1cnc([N+](=O)[O-])c1SCC(=O)O > 100 µM

Determine from records and report TGI for O=[N+]([O-])/C(Cl)=C(\Nc1ccccc1)C(Cl)=C(Cl)Cl > 100 µM

Determine from records and report TGI for O=C1NC(=O)C2(CCC(O)C2)c2cc[n+]([O-])cc21 (stereo unspecified) > 100 µM

Determine from records and report TGI for Cc1[nH]c(=O)nc(CC(O)(c2ccccc2)c2ccccc2)c1-c1ccccc1 > 100 µM

Determine from records and report TGI for NC(=O)C12C3C4C1C1C2C3C41C(N)=O (stereo unspecified) > 100 µM

Determine from records and report TGI for NC1=CC(C(=O)c2ccncc2)c2nc3ccccc3nc21 (stereo unspecified) > 100 µM

Determine from records and report TGI for O=C(N=Nc1c(O)[nH]c2c(Cl)cc(Cl)cc12)c1ccncc1 > 100 µM

Determine from records and report TGI for CCCC(=O)NC(c1ccc2c(c1)OCO2)c1ccc2cccnc2c1O (stereo unspecified) 18.4 µM

Determine from records and report TGI for COc1ccc2c(c1OC)-c1c(c3ccc([N+](=O)[O-])cc3c(=O)n1CCCN=[N+]=[N-])C2=O > 100 µM

Determine from records and report TGI for O=C(O)c1ccccn1 > 100 µM

Determine from records and report TGI for CN(C)c1ccc(/C=C2\N=C(N/N=C/c3ccccc3)NC2=O)cc1 > 100 µM

Determine from records and report TGI for CCCC[P+](c1ccccc1)(c1ccccc1)c1ccccc1 > 100 µM

Determine from records and report TGI for Cc1c2ncccc2nc2[nH]c3ccc(OCCN(C)C)cc3c12 11.5 µM

Determine from records and report TGI for CCOC(=O)N1C/C(=C/c2ccc(OC)cc2)C(=O)/C(=C/c2ccc(OC)cc2)C1 5.19 µM

Determine from records and report TGI for CN(C)c1nc(N(C)C)n2nc(-c3ccccc3[N+](=O)[O-])nc2n1 > 100 µM

Determine from records and report TGI for CC(=O)O[C@H]1C(=O)[C@@]2(C)[C@H]([C@H](OC(=O)c3ccc([N+](=O)[O-])cc3)[C@]3(O)C[C@H](OC(=O)[C@H](O)[C@@H](NC(=O)c4ccccc4)c4ccccc4)C(C)=C1C3(C)C)[C@]1(OC(C)=O)CO[C@@H]1C[C@@H]2O > 25 µM

Determine from records and report TGI for O=C(NCCCNC(=O)OCc1ccc2c(Br)cc(Br)c(O)c2n1)OCc1ccc2c(Br)cc(Br)c(O)c2n1 > 100 µM

Determine from records and report TGI for O=C(NCCN1CCOCC1)Nc1ccc(-c2cc3c(Nc4ccc(Oc5cccc(C(F)(F)F)c5)c(Cl)c4)ncnc3s2)cc1 1.75 µM

Determine from records and report TGI for NC(C(F)(F)F)(C(F)(F)F)P(=O)(c1ccccc1)c1ccccc1 > 100 µM

Determine from records and report TGI for O=C(CSCC(=O)N/N=C/c1cccc(OCc2ccccc2)c1)N/N=C/c1cccc(OCc2ccccc2)c1 > 100 µM

---

Would you kindly list TGI for each of these compounds?
Tested on: M14 melanoma
Experiment: NCI tumour cell line growth inhibition, 48 h

Give TGI; test system M14 melanoma; compound CCCC[P+](c1ccccc1)(c1ccccc1)c1ccccc1 > 100 µM

Give TGI; test system M14 melanoma; compound CCOC(=O)c1nc2ccc(Cl)cc2c2c1CCO2 > 100 µM

Give TGI; test system M14 melanoma; compound C=C1CC2(OC1=O)c1ccccc1C=Cc1ccccc12 10 µM

Give TGI; test system M14 melanoma; compound O=[N+]([O-])c1cc(Cl)cc2c1nc(NCCO)c1ccccc12 > 100 µM

Give TGI; test system M14 melanoma; compound CN(C)[C@@H]1C(=O)C(C(=O)NCNCCCC(=O)O)=C(O)[C@@]2(O)C(=O)C3=C(O)c4c(O)cccc4[C@@](C)(O)[C@H]3C[C@@H]12 > 100 µM

Give TGI; test system M14 melanoma; compound CCN(CC)CCCCCOc1cc(O)c2c(=O)cc(-c3ccccc3)oc2c1 3.1 µM

Give TGI; test system M14 melanoma; compound CC(C)CNc1nc(N)[nH]c(=O)c1NC=O > 100 µM

Give TGI; test system M14 melanoma; compound O=C1Nc2ccccc2[C@]12C[C@H]2c1ccccn1 > 100 µM

Give TGI; test system M14 melanoma; compound CC12CCc3ccccc3C1=Nc1ccccc12 (stereo unspecified) > 100 µM

Give TGI; test system M14 melanoma; compound COC(=O)/C(C#N)=C1\NC(=O)CC(c2ccccc2)C1C#N (stereo unspecified) > 100 µM

Give TGI; test system M14 melanoma; compound O=C(N=Nc1c(O)[nH]c2c(Cl)cc(Cl)cc12)c1ccncc1 > 100 µM
